abundance fitness values, listed per item
B1: Glucocorticoid receptor, residues 419 to 494; numbered along this chain, P04150 (parent)
chain: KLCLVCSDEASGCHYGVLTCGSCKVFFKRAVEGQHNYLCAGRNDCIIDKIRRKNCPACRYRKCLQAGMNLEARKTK

- Variants of: B1
- procedure-text: abundance fitness (aPCA) (normalised: wild type 0, dead -1); higher = more abundant; growth selection in yeast, the domain comes from the species named
- setup-conditions: Homo sapiens
Reply with the value as a number alone.

Worked examples follow.
C45V    -0.698
Q34D    -0.046
A40P    -0.066
V25S    -0.017
R59L    -0.017
R59G    -0.825
R73C    -0.019
C58G    -0.81
S11W    -0.236
A40L    -0.065

Value of abundance fitness reported for the variant K62M is -0.042

Value of abundance fitness reported for the variant G16K is -0.295

Value of abundance fitness reported for the variant K74H is 0.039

Value of abundance fitness reported for the variant R59V is -0.783

Value of abundance fitness reported for the variant Q34R is 0.002

Value of abundance fitness reported for the variant I46C is -0.025

Value of abundance fitness reported for the variant R73M is 0.012

Value of abundance fitness reported for the variant E32K is 0.01

Value of abundance fitness reported for the variant G33P is -0.265

Value of abundance fitness reported for the variant S7I is -0.725

Value of abundance fitness reported for the variant K24F is -0.092

Value of abundance fitness reported for the variant L18V is 0

Value of abundance fitness reported for the variant C45L is -0.917

Value of abundance fitness reported for the variant C13D is -0.008

Value of abundance fitness reported for the variant G21T is -0.031

Ref: the Human Domainome abundance scans (Beltran et al. 2025)
